# System: Candida albicans
# stated_conditions: 20 µM
# Description: Antifungal activity against Candida albicans ATCC 90028 (CO-ADD:FG_001); MIC in YNB media using NBS plates, by OD630
Potency and affinity values are given separately.
Measured Inhibition, listed per entry for reference.

{"molecule": "NC(=O)OCCCc1ccccc1 [PHENPROBAMATE]", "Inhibition": "3.16%"}
{"molecule": "CC(C(=O)O)c1ccc(-c2ccccc2)c(F)c1 (configuration not stated)", "Inhibition": "8.89%"}
{"molecule": "Cl.FC(F)(F)c1cccc(N2CCNCC2)c1", "Inhibition": "4.36%"}
{"molecule": "COc1cc(N)c(Cl)cc1C(=O)NC1CN2CCC1CC2.Cl.O (configuration not stated) [ZACOPRIDE HYDROCHLORIDE]", "Inhibition": "5.47%"}
{"molecule": "C#CCN(C)[C@H](C)Cc1ccccc1.Cl [SELEGILINE HYDROCHLORIDE]", "Inhibition": "4.68%"}
{"molecule": "CC[C@@H]1/C=C/C=C/C[C@H](C)[C@@H](O)[C@](C)(O)C(=O)[C@H](C)[C@@H](O)[C@H](C)C(=O)[C@H](C)[C@@H](O)[C@H](C)/C=C/C(=O)O[C@H]2[C@@H](C)[C@@H](CC1)O[C@@]1(CC[C@@H](C)[C@@H](C[C@H](C)O)O1)[C@@H]2C", "Inhibition": "5.45%"}
{"molecule": "C=C(C)[C@@H]1[C@H]2OC(=O)[C@@H]1[C@]1(O)C[C@H]3O[C@]34C(=O)O[C@H]2[C@]14C.CC(C)(O)[C@@H]1[C@H]2OC(=O)[C@@H]1[C@]1(O)C[C@H]3O[C@]34C(=O)O[C@H]2[C@]14C", "Inhibition": "2.79%"}

---

# Test system: Klebsiella pneumoniae
# stated_conditions: Concentration 20 uM; ASSAY_TEST Inhibition of Bacterial Growth; detection method Absorption (OD600); MEDIA CAMHB; plate type 384well; NBS; CORNING #3640; time 18 hr
# Description: Antibacterial activity against Klebsiella pneumoniae MDR ATCC 70063 (CO-ADD:GN_003); MIC in CAMBH media using NBS plates, by OD(600)
Potency and affinity values are given separately.
endpoint_label: Inhibition (%)

{"compound": "CCC(COC(=O)c1cc(OC)c(OC)c(OC)c1)(c1ccccc1)N(C)C.O=C(O)/C=C\\C(=O)O (stereo not given)", "endpoint_label": "Inhibition", "reading": 22.71}
{"compound": "CN1CCN2c3ncccc3Cc3ccccc3C2C1 (stereo not given)", "endpoint_label": "Inhibition", "reading": 5.61}
{"compound": "CCN(C(C)=O)c1cccc(-c2ccnc3c(C#N)cnn23)c1", "endpoint_label": "Inhibition", "reading": 6.53}
{"compound": "CC(=O)OCC[N+](C)(C)C.[Cl-] [ACETYLCHOLINE CHLORIDE]", "endpoint_label": "Inhibition", "reading": 16.59}
{"compound": "O=C(O[C@@H]1Cc2c(O)cc(O)cc2O[C@@H]1c1cc(O)c(O)c(O)c1)c1cc(O)c(O)c(O)c1 [EPIGALOCATECHIN GALLATE]", "endpoint_label": "Inhibition", "reading": 17.83}
{"compound": "Cl.FC(F)(F)c1cccc(N2CCNCC2)c1", "endpoint_label": "Inhibition", "reading": 6.51}
{"compound": "CN(C)CCc1c[nH]c2ccc(C[C@H]3COC(=O)N3)cc12", "endpoint_label": "Inhibition", "reading": 7.51}
{"compound": "N=C(NCc1ccc(Cl)cc1)SCCCc1c[nH]cn1", "endpoint_label": "Inhibition", "reading": 6.85}
{"compound": "COc1cc([C@@H]2c3cc4c(cc3[C@H](O)[C@H]3COC(=O)[C@H]23)OCO4)cc(OC)c1OC", "endpoint_label": "Inhibition", "reading": 15.68}
{"compound": "CCOC(=O)C1(c2ccccc2)CCN(CCC(C#N)(c2ccccc2)c2ccccc2)CC1.Cl [DIPHENOXYLATE HYDROCHLORIDE]", "endpoint_label": "Inhibition", "reading": 2.24}
{"compound": "COc1cc(CNC(=O)CCCC/C=C\\C(C)C)ccc1O", "endpoint_label": "Inhibition", "reading": 12.92}
{"compound": "CN1[C@@H]2CC[C@H]1CC(OC(=O)C(CO)c1ccccc1)C2 (stereo not given in full)", "endpoint_label": "Inhibition", "reading": 9.61}
{"compound": "Br.COc1ccc2c(c1)[C@]13CCCC[C@@H]1[C@H](C2)N(C)CC3.O [DEXTROMETHORPHAN HYDROBROMIDE]", "endpoint_label": "Inhibition", "reading": 8.1}
{"compound": "C[C@]12Cc3c[nH]nc3C[C@@H]1CC[C@@H]1[C@@H]2CC[C@@]2(C)[C@H]1CC[C@]2(C)O", "endpoint_label": "Inhibition", "reading": 7.49}
{"compound": "Cc1c(OCC(F)(F)F)ccnc1C[S+]([O-])c1nc2ccccc2[nH]1 (stereo not given)", "endpoint_label": "Inhibition", "reading": 7.47}
{"compound": "COc1cc(N)c(Cl)cc1C(=O)NC1CN2CCC1CC2.Cl.O (stereo not given) [ZACOPRIDE HYDROCHLORIDE]", "endpoint_label": "Inhibition", "reading": -4}
{"compound": "CC[C@@H](C(N)=O)N1CCCC1=O", "endpoint_label": "Inhibition", "reading": 13.35}
{"compound": "C=C1C[C@@H]2[C@H](CC[C@]3(C)C(=O)CC[C@@H]23)[C@@]2(C)C=CC(=O)C=C12", "endpoint_label": "Inhibition", "reading": 6.02}
{"compound": "CN1[C@@H]2CC[C@H]1C[C@@H](OC(=O)c1c[nH]c3ccccc13)C2.Cl", "endpoint_label": "Inhibition", "reading": 15.9}
{"compound": "COc1cc(-c2ccc(=O)[nH]n2)ccc1OC(F)F", "endpoint_label": "Inhibition", "reading": 6.98}
{"compound": "CC(C)c1cccc(C(C)C)c1O", "endpoint_label": "Inhibition", "reading": 12.14}
{"compound": "CCOC(=O)c1ncn2c1CN(C)C(=O)c1cc(F)ccc1-2", "endpoint_label": "Inhibition", "reading": -2}
{"compound": "COc1ccc2[nH]cc(CCN)c2c1", "endpoint_label": "Inhibition", "reading": 5.41}
{"compound": "NC1=NC(=O)C(c2ccccc2)O1 (stereo not given)", "endpoint_label": "Inhibition", "reading": 13.09}
{"compound": "CC(C)NCC(O)COc1cccc2[nH]ccc12 (stereo not given)", "endpoint_label": "Inhibition", "reading": 17.1}
{"compound": "NC(=O)C[S+]([O-])C(c1ccccc1)c1ccccc1 (stereo not given)", "endpoint_label": "Inhibition", "reading": 7.6}
{"compound": "C[C@]12CC[C@H]3[C@@H](CCC4=CC(=O)CC[C@@]43C)[C@@H]1CC[C@@H]2O", "endpoint_label": "Inhibition", "reading": 3.5}
{"compound": "C[N+]1(CCC(C(N)=O)(c2ccccc2)c2ccccc2)CCCCC1.[Br-] [FENPIVERINIUM BROMIDE]", "endpoint_label": "Inhibition", "reading": -3.21}
{"compound": "C=C(C)[C@@H]1[C@H]2OC(=O)[C@@H]1[C@]1(O)C[C@H]3O[C@]34C(=O)O[C@H]2[C@]14C.CC(C)(O)[C@@H]1[C@H]2OC(=O)[C@@H]1[C@]1(O)C[C@H]3O[C@]34C(=O)O[C@H]2[C@]14C", "endpoint_label": "Inhibition", "reading": 10.94}
{"compound": "C[N+]1(C)CCC(OC(=O)C(O)(c2ccccc2)C2CCCC2)C1.[Br-] (stereo not given) [GLYCOPYRRONIUM BROMIDE]", "endpoint_label": "Inhibition", "reading": 13.34}
{"compound": "CC(C)CC(N(C)C)C1(c2ccc(Cl)cc2)CCC1 (stereo not given)", "endpoint_label": "Inhibition", "reading": 10.19}
{"compound": "CCCCCNC(=N)N/N=C/c1c[nH]c2ccc(OC)cc12.O=C(O)/C=C\\C(=O)O [TEGASEROD MALEATE]", "endpoint_label": "Inhibition", "reading": 6.68}
{"compound": "CN(C)CCOc1ccc(/C(=C(/CCCl)c2ccccc2)c2ccccc2)cc1.O=C(O)CC(O)(CC(=O)O)C(=O)O [TOREMIFENE CITRATE]", "endpoint_label": "Inhibition", "reading": 8.47}
{"compound": "c1ccc(Cn2ccnc2)cc1", "endpoint_label": "Inhibition", "reading": 8.34}
{"compound": "Cc1ncc2n1-c1ccc(Cl)cc1C(c1ccccc1F)=NC2.Cl [MIDAZOLAM HYDROCHLORIDE]", "endpoint_label": "Inhibition", "reading": 2.84}

---

# Test system: Candida albicans
# stated_conditions: 20 µM
Measured potencies and affinities stand elsewhere.
endpoint_label: Inhibition (%)

{"molecule": "Br.COc1ccc2c3c1O[C@H]1C[C@@H](O)C=C[C@@]31CCN(C)C2 [GALANTAMINE HYDROBROMIDE]", "endpoint_label": "Inhibition", "reading": 3.12}
{"molecule": "NS(=O)(=O)c1cc(C2(O)NC(=O)c3ccccc32)ccc1Cl (stereo not drawn) [CHLORTHALIDONE]", "endpoint_label": "Inhibition", "reading": 3.92}
{"molecule": "CNCCC(Oc1ccc(C(F)(F)F)cc1)c1ccccc1.Cl (stereo not drawn) [FLUOXETINE HYDROCHLORIDE]", "endpoint_label": "Inhibition", "reading": 1.79}
{"molecule": "CC(C)c1cccc(C(C)C)c1O [PROPOFOL]", "endpoint_label": "Inhibition", "reading": 2.62}
{"molecule": "CC(C)CC(N(C)C)C1(c2ccc(Cl)cc2)CCC1 (stereo not drawn) [SIBUTRAMINE]", "endpoint_label": "Inhibition", "reading": 2.06}
{"molecule": "c1ccc2c(c1)Nc1ccccc1S2 [PHENOTHIAZINE]", "endpoint_label": "Inhibition", "reading": 4.65}
{"molecule": "C[C@]12CCC(=O)C=C1CC[C@@H]1[C@@H]2CC[C@@]2(C)[C@H]1CC[C@]2(C)O [METHYLTESTOSTERONE]", "endpoint_label": "Inhibition", "reading": 4.22}
{"molecule": "Br.COc1ccc2c(c1)[C@]13CCCC[C@@H]1[C@H](C2)N(C)CC3.O [DEXTROMETHORPHAN HYDROBROMIDE]", "endpoint_label": "Inhibition", "reading": 2.88}
